FYI, the data here is from a melting point compilation (Tetko et al.; mined from patent text by program, amines drawn as free bases though some values may be those of a salt).

# melting point listing for each entry below

Observe how each entry below is paired with its result.
{"columns": ["compound", "melting point"],
 "data": [
  ["O=C(CCCCl)c1ccc2oc3ccc(C(=O)CCCCl)cc3c2c1", "102 to 104 °C"],
  ["NS(=O)(=O)c1cccc(-c2noc(-c3cnc4c(C(F)(F)F)cc(-c5ccc(C(F)(F)F)cc5)cn34)n2)c1", "297 °C"],
  ["CCP(=O)(CC)C(O)[C@H](CC1CCCCC1)NC(=O)[C@H](CC(C)C)NC(=O)[C@H](Cc1ccccc1)NC(=O)C1CCCC1 (some centres undefined)", "170 to 171 °C"]
]}

Input: May I ask what melting point has been recorded for CCOC(=O)C(=O)Nc1cc(Cl)ccc1[N+](=O)[O-] ?
Output: 103 to 104 °C
